// data source = PubChem BioAssay AID1963961

tested on: K98450-129-R-PDC multicell spheroids, viability; experiment: Anticancer human tumor K98450-129-R-PDC patient-derived colon adenocarcinoma cell line growth inhibition [PI3K]; conditions: second compound 0.0316 µM; first compound 0.1 µM; stronger effect = lower value
List of viability, T/C values.
Field format: number, assumed %, no unit text.

Consider the reported viability, T/C for these compounds:
# Compound, Assay readout, Assay value
data = [
    ("C[C@@H](NC(=O)c1ncnc(N)c1Cl)c1ncc(C(=O)Nc2cc(C(F)(F)F)c(Cl)cn2)s1 + Cc1nc(NC(=O)N2CCCC2C(N)=O)sc1-c1ccnc(C(C)(C)C(F)(F)F)c1", "viability, T/C", 106),
    ("Cn1ncc(Cl)c1-c1cc(C(=O)NC(CN)Cc2cccc(F)c2)sc1Cl (stereo not given) + CC(Nc1ncnc2nc[nH]c12)c1cc2cccc(Cl)c2c(=O)n1-c1ccccc1", "viability, T/C", 105),
    ("C[C@@H](NC(=O)c1ncnc(N)c1Cl)c1ncc(C(=O)Nc2cc(C(F)(F)F)c(Cl)cn2)s1 + CC(Nc1ncnc2nc[nH]c12)c1cc2cccc(Cl)c2c(=O)n1-c1ccccc1", "viability, T/C", 108),
    ("CC1(C)CCC(Nc2ncc(C(F)(F)F)c(-c3c[nH]c4c(P(C)(C)=O)c(C#N)ccc34)n2)CN1 (stereo not given) + CC(Nc1ncnc2nc[nH]c12)c1cc2cccc(Cl)c2c(=O)n1-c1ccccc1", "viability, T/C", 85.5),
]

# evaluate next
Given C[C@@H](NC(=O)c1ncnc(N)c1Cl)c1ncc(C(=O)Nc2cc(C(F)(F)F)c(Cl)cn2)s1 + CC(Nc1ccc2c(c1)OCCn1cc(N3C(=O)OCC3C(F)F)nc1-2)C(N)=O , state its recorded viability, T/C. 102

###

List of viability, T/C values.
system: K98450-129-R-PDC multicell spheroids, viability; experiment: Anticancer human tumor K98450-129-R-PDC cell line growth inhibition [PI3K]; details: second compound 0.0316 µM; first compound 0.316 µM; stronger effect = lower value;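 note: spheroids exposed to agents for seven days before read-out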
Field format: number, assumed %, no unit text.

Consider the reported viability, T/C for these compounds:
# Compound, Assay value
records = [
    ("CC(C)NCC(C(=O)N1CCN(c2ncnc3c2C(C)CC3O)CC1)c1ccc(Cl)cc1 (stereo not given) + COc1c(OCCCN2CCOCC2)ccc2c3n(c(=NC(=O)c4cnc(N)nc4)nc12)CCN3", 88.4),
    ("CCN1CCN(Cc2ccc(Nc3ncc(F)c(-c4cc(F)c5nc(C)n(C(C)C)c5c4)n3)nc2)CC1 + CC(Nc1ncnc2nc[nH]c12)c1cc2cccc(Cl)c2c(=O)n1-c1ccccc1", 81.6),
    ("CC1(C)CCC(CN2CCN(c3ccc(C(=O)NS(=O)(=O)c4ccc(NCC5CCOCC5)c([N+](=O)[O-])c4)c(Oc4cnc5[nH]ccc5c4)c3)CC2)=C(c2ccc(Cl)cc2)C1 + Cc1nc(NC(=O)N2CCCC2C(N)=O)sc1-c1ccnc(C(C)(C)C(F)(F)F)c1", 106),
]

Given CCN1CCN(Cc2ccc(Nc3ncc(F)c(-c4cc(F)c5nc(C)n(C(C)C)c5c4)n3)nc2)CC1 + CC(Nc1ccc2c(c1)OCCn1cc(N3C(=O)OCC3C(F)F)nc1-2)C(N)=O , state its recorded viability, T/C. 94.5

Given Cn1nccc1Nc1nccc(-c2ccn(C(CO)c3ccc(Cl)c(F)c3)c(=O)c2)n1 (stereo not given) + COc1c(OCCCN2CCOCC2)ccc2c3n(c(=NC(=O)c4cnc(N)nc4)nc12)CCN3 , state its recorded viability, T/C. 74.8

Given CC1(C)CCC(CN2CCN(c3ccc(C(=O)NS(=O)(=O)c4ccc(NCC5CCOCC5)c([N+](=O)[O-])c4)c(Oc4cnc5[nH]ccc5c4)c3)CC2)=C(c2ccc(Cl)cc2)C1 + COc1c(OCCCN2CCOCC2)ccc2c3n(c(=NC(=O)c4cnc(N)nc4)nc12)CCN3 , state its recorded viability, T/C. 104

Given CC1(C)CCC(CN2CCN(c3ccc(C(=O)NS(=O)(=O)c4ccc(NCC5CCOCC5)c([N+](=O)[O-])c4)c(Oc4cnc5[nH]ccc5c4)c3)CC2)=C(c2ccc(Cl)cc2)C1 + CC(Nc1ccc2c(c1)OCCn1cc(N3C(=O)OCC3C(F)F)nc1-2)C(N)=O , state its recorded viability, T/C. 106

Given CCN1CCN(Cc2ccc(Nc3ncc(F)c(-c4cc(F)c5nc(C)n(C(C)C)c5c4)n3)nc2)CC1 + Cc1nc(NC(=O)N2CCCC2C(N)=O)sc1-c1ccnc(C(C)(C)C(F)(F)F)c1 , state its recorded viability, T/C. 86.9

Given Cn1ncc(Cl)c1-c1cc(C(=O)NC(CN)Cc2cccc(F)c2)sc1Cl (stereo not given) + CC(Nc1ncnc2nc[nH]c12)c1cc2cccc(Cl)c2c(=O)n1-c1ccccc1 , state its recorded viability, T/C. 102

Given Cn1nccc1Nc1nccc(-c2ccn(C(CO)c3ccc(Cl)c(F)c3)c(=O)c2)n1 (stereo not given) + CC(Nc1ccc2c(c1)OCCn1cc(N3C(=O)OCC3C(F)F)nc1-2)C(N)=O , state its recorded viability, T/C. 96.5
